Values from ChEMBL document CHEMBL1136542

- Measured target: Disintegrin and metalloproteinase domain-containing protein 17 (Sus scrofa)
Experimental readout: IC50

Cc1cc(COc2ccc(N3CC[C@H]([C@H](NC(=O)OC(C)(C)C)C(=O)NO)C3=O)cc2)c2ccccc2n1; 1 nM
Cc1cc(COc2ccc(N3CC[C@H]([C@H](NC(=O)C(C)(C)C)C(=O)NO)C3=O)cc2)c2ccccc2n1; < 1 nM
Cc1cc(COc2ccc(N3CC[C@H]([C@H](O)C(=O)NO)C3=O)cc2)c2ccccc2n1; 3 nM
Cc1cc(COc2ccc(N3CC[C@H]([C@H](NC(=O)OC(C)(C)C)C(=O)NO)C3=O)cc2)cc(C)n1; 6 nM
CCC[C@H](C(=O)NO)[C@@]1(N)CCN(c2ccc(OCc3cc(C)nc4ccccc34)cc2)C1=O; 4 nM
CC(=O)N[C@H](C(=O)NO)[C@H]1CCN(c2ccc(OCc3cc(C)nc4ccccc34)cc2)C1=O; 1 nM
C[C@@H]([C@H]1CCN(c2ccc(OCc3ccccc3)cc2)C1=O)N(O)C=O; 111 nM
Cc1cc(COc2ccc(N3CC[C@](N)([C@H](C)C(=O)NO)C3=O)cc2)c2ccccc2n1; 2 nM

* * *

For reference, IC50 measured on Disintegrin and metalloproteinase domain-containing protein 17 (Sus scrofa):
Experimental readout: IC50 (nM)

Cc1cc(COc2ccc(N3CC[C@H]([C@H](C)C(=O)NO)C3=O)cc2)c2ccccc2n1; 1
Cc1cc(COc2ccc(N3CC[C@H]([C@H](N)C(=O)NO)C3=O)cc2)c2ccccc2n1; 2
CCCCOC(=O)N[C@H](C(=O)NO)[C@H]1CCN(c2ccc(OCc3cc(C)nc4ccccc34)cc2)C1=O; 2
Cc1cc(COc2ccc(N3CC[C@H]([C@H](N)C(=O)NO)C3=O)cc2)cc(C)n1; 50
Cc1cc(COc2ccc(N3CC[C@H]([C@@H](C(=O)NO)N4CCCC4)C3=O)cc2)c2ccccc2n1; 26
Cc1cc(COc2ccc(N3CC[C@H]([C@@H](C)C(=O)NO)C3=O)cc2)c2ccccc2n1; 52

* * *

- Measured target: Disintegrin and metalloproteinase domain-containing protein 17 (Sus scrofa, UniProt O77636)
- Sequence (O77636 whole entry, the tested form may be a part): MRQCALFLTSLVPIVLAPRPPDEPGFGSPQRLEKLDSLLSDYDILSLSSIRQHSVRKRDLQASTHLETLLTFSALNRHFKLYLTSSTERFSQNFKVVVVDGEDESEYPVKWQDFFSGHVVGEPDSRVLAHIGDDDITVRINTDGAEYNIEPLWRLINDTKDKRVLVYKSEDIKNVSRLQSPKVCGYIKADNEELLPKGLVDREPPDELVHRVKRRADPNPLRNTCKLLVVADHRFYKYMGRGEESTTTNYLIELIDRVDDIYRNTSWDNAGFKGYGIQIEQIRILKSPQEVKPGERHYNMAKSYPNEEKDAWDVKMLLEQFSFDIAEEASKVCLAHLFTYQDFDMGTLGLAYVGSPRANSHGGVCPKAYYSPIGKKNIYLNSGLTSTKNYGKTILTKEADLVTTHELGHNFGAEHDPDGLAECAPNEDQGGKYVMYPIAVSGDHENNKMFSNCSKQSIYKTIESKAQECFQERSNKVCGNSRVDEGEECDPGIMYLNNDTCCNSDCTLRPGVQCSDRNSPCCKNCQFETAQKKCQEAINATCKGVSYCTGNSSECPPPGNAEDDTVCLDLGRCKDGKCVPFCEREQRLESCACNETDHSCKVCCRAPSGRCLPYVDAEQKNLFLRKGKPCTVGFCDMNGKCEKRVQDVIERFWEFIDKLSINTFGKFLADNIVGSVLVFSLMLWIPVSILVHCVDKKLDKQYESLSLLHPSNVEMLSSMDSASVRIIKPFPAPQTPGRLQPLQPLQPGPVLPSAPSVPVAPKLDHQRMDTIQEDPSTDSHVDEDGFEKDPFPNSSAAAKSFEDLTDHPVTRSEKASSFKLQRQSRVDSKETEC
Exam item: assign MET to entries whose IC50 is below 7 nM and NOT MET to entries at or above 7 nM. Note that a value of exactly 7 nM receives NOT MET.

Cc1cc(COc2ccc(N3CC[C@H]([C@H](NC(=O)c4ccccc4)C(=O)NO)C3=O)cc2)c2ccccc2n1; MET
Cc1cc(COc2ccc(N3CC[C@H]([C@H](C)N(O)C=O)C3=O)cc2)c2ccccc2n1; MET
CCC[C@@H](C(=O)NO)[C@@]1(N)CCN(c2ccc(OCc3cc(C)nc4ccccc34)cc2)C1=O; NOT MET
CCC[C@@H](C(=O)NO)[C@H]1CCN(c2ccc(OCc3cc(C)nc4ccccc34)cc2)C1=O; NOT MET
Cc1cc(COc2ccc(N3CC[C@](N)(CC(=O)NO)C3=O)cc2)c2ccccc2n1; MET
Cc1cc(COc2ccc(N3CC[C@@]([C@H](C)C(=O)NO)(N(C)C)C3=O)cc2)c2ccccc2n1; NOT MET

* * *

For reference, Ki measured on UniProt:P08253:
Experimental readout: Ki

CCCCOC(=O)N[C@H](C(=O)NO)[C@H]1CCN(c2ccc(OCc3cc(C)nc4ccccc34)cc2)C1=O; > 305 nM
Cc1cc(COc2ccc(N3CC[C@H]([C@H](N)C(=O)NO)C3=O)cc2)c2ccccc2n1; 446 nM
CCC[C@H](C(=O)NO)[C@@]1(N)CCN(c2ccc(OCc3cc(C)nc4ccccc34)cc2)C1=O; > 3000 nM
Cc1cc(COc2ccc(N3CC[C@H]([C@@H](C(=O)NO)N(C)C)C3=O)cc2)c2ccccc2n1; > 3000 nM
